- Procedure Text: solubility of the crystal forms in water and organic solvents
- Format: physicochemical
- Condition Summary: hexane, 25 °C, organic solvent or mixture, at 25° C.; read-out: solubility in hexane
Measurement Kind: solubility (µg/mL)
Numbers only, in µg/mL.

Which measured solubility value corresponds to CC[C@@H]1/C=C(\C)C[C@H](C)C[C@H](OC)[C@H]2O[C@@](O)(C(=O)C(=O)N3CCCC[C@H]3C(=O)O[C@H](/C(C)=C/[C@@H]3CC[C@H](Cl)[C@H](OC)C3)[C@H](C)[C@@H](O)CC1=O)[C@H](C)C[C@@H]2OC [Form B, 33-epichloro-33-desoxyascomycin] ? 1500

###

- Procedure Text: solubility of the crystal forms in water and organic solvents
- Type: physicochemical
- Condition Summary: methanol, 25 °C, organic solvent or mixture, at 25° C.; read-out: solubility in methanol
Measurement Kind: solubility

Request the reported solubility associated with CC[C@@H]1/C=C(\C)C[C@H](C)C[C@H](OC)[C@H]2O[C@@](O)(C(=O)C(=O)N3CCCC[C@H]3C(=O)O[C@H](/C(C)=C/[C@@H]3CC[C@H](Cl)[C@H](OC)C3)[C@H](C)[C@@H](O)CC1=O)[C@H](C)C[C@@H]2OC [Form A, 33-epichloro-33-desoxyascomycin] > 50 mg/mL

###

- Procedure Text: solubility of the crystal forms in water and organic solvents
- Assay type: physicochemical
- Condition Summary: acetone, 25 °C, organic solvent or mixture, at 25° C.; read-out: solubility in acetone
Measurement Kind: solubility

Requested field: solubility. Item: CC[C@@H]1/C=C(\C)C[C@H](C)C[C@H](OC)[C@H]2O[C@@](O)(C(=O)C(=O)N3CCCC[C@H]3C(=O)O[C@H](/C(C)=C/[C@@H]3CC[C@H](Cl)[C@H](OC)C3)[C@H](C)[C@@H](O)CC1=O)[C@H](C)C[C@@H]2OC [Form A, 33-epichloro-33-desoxyascomycin] > 50 mg/mL

###

- Procedure Text: solubility of the crystal forms in water and organic solvents
- Assay type: physicochemical
- Condition Summary: ethyl acetate, 25 °C, organic solvent or mixture, at 25° C.; read-out: solubility in ethyl acetate
Measurement Kind: solubility

Consider the molecule shown here: CC[C@@H]1/C=C(\C)C[C@H](C)C[C@H](OC)[C@H]2O[C@@](O)(C(=O)C(=O)N3CCCC[C@H]3C(=O)O[C@H](/C(C)=C/[C@@H]3CC[C@H](Cl)[C@H](OC)C3)[C@H](C)[C@@H](O)CC1=O)[C@H](C)C[C@@H]2OC [Form A, 33-epichloro-33-desoxyascomycin] What is its recorded solubility? > 50 mg/mL

###

- Procedure Text: solubility of the crystal forms in water and organic solvents
- Format: physicochemical
- Condition Summary: ethyl acetate, 5 °C, organic solvent or mixture, at 5° C.; read-out: solubility in ethyl acetate
Measurement Kind: solubility

Which solubility reading was recorded for the compound CC[C@@H]1/C=C(\C)C[C@H](C)C[C@H](OC)[C@H]2O[C@@](O)(C(=O)C(=O)N3CCCC[C@H]3C(=O)O[C@H](/C(C)=C/[C@@H]3CC[C@H](Cl)[C@H](OC)C3)[C@H](C)[C@@H](O)CC1=O)[C@H](C)C[C@@H]2OC [Form A, 33-epichloro-33-desoxyascomycin] ? > 100 mg/mL

###

- Procedure Text: solubility of the crystal forms in water and organic solvents
- Format: physicochemical
- Condition Summary: water, 5 °C, water, at 5° C.; read-out: solubility in water
Measurement Kind: solubility (µg/mL)
Numbers only, in µg/mL.

For the compound CC[C@@H]1/C=C(\C)C[C@H](C)C[C@H](OC)[C@H]2O[C@@](O)(C(=O)C(=O)N3CCCC[C@H]3C(=O)O[C@H](/C(C)=C/[C@@H]3CC[C@H](Cl)[C@H](OC)C3)[C@H](C)[C@@H](O)CC1=O)[C@H](C)C[C@@H]2OC [Form B, 33-epichloro-33-desoxyascomycin] , what solubility is on record? 300

###

- Procedure Text: solubility of the crystal forms in water and organic solvents
- Assay type: physicochemical
- Condition Summary: diethyl ether, 25 °C, organic solvent or mixture, at 25° C.; read-out: solubility in diethyl ether
Measurement Kind: solubility (mg/mL)
One number for each entry, in mg/mL.

Returns the measured solubility for the input molecule. Input: CC[C@@H]1/C=C(\C)C[C@H](C)C[C@H](OC)[C@H]2O[C@@](O)(C(=O)C(=O)N3CCCC[C@H]3C(=O)O[C@H](/C(C)=C/[C@@H]3CC[C@H](Cl)[C@H](OC)C3)[C@H](C)[C@@H](O)CC1=O)[C@H](C)C[C@@H]2OC [Form B, 33-epichloro-33-desoxyascomycin] 16.3

Where do the numbers come from? From patent US6423722B1.
